- Measurement target: hMAOA (Homo sapiens, UniProt P21397)
- Sequence (P21397 whole entry): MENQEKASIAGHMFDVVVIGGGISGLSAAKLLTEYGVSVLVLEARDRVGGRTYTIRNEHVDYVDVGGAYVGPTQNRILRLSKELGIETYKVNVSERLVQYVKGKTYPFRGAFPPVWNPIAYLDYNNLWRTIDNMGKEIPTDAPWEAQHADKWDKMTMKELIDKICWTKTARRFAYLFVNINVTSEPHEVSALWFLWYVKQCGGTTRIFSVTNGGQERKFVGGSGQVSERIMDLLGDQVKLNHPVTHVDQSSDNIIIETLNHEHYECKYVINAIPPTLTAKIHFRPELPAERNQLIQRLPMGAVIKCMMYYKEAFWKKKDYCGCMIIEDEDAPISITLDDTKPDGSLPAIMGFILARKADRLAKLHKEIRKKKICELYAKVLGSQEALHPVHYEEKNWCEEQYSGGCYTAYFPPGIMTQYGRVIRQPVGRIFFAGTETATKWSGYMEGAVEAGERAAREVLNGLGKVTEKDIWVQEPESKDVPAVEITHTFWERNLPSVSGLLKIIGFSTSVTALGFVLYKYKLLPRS
Listed here are molecules together with their documented pIC50.
Scale for pIC50: -log10 of concentration given in mol/L; no unit attached.

- Molecule: "CCCOc1ccc2[nH]cc(CCNC(=O)CN(CCCCC3CCN(Cc4ccccc4)CC3)C(=O)c3cc(=O)c4ccccc4o3)c2c1 [14p]"
  Result number: 5.86

Prompt: Given the molecule O=C(CN(CC1CCN(Cc2ccccc2)CC1)C(=O)c1cc(=O)c2ccccc2o1)NCCc1c[nH]c2ccccc12 [14a] , what is its reported pIC50?
Response: 5.70

Prompt: Try CC(C)Oc1ccc2[nH]cc(CCNC(=O)CN(CCCC3CCN(Cc4ccccc4)CC3)C(=O)c3cc(=O)c4ccccc4o3)c2c1 [14k] next.
Response: 5.52

Prompt: // same read-out, input: COc1ccc2[nH]cc(CCNC(=O)CN(CCCCC3CCN(Cc4ccccc4)CC3)C(=O)c3cc(=O)c4ccccc4o3)c2c1 [14n]
Response: 5.56

----------
Reported pIC50 values for a set of molecules
- Measurement target: EeAChE (Electrophorus electricus, UniProt O42275)
- Construct: EeAChE (type VI-S, purified from Electrophorus electricus); tissue type VI-S
- Sequence (O42275 24-633): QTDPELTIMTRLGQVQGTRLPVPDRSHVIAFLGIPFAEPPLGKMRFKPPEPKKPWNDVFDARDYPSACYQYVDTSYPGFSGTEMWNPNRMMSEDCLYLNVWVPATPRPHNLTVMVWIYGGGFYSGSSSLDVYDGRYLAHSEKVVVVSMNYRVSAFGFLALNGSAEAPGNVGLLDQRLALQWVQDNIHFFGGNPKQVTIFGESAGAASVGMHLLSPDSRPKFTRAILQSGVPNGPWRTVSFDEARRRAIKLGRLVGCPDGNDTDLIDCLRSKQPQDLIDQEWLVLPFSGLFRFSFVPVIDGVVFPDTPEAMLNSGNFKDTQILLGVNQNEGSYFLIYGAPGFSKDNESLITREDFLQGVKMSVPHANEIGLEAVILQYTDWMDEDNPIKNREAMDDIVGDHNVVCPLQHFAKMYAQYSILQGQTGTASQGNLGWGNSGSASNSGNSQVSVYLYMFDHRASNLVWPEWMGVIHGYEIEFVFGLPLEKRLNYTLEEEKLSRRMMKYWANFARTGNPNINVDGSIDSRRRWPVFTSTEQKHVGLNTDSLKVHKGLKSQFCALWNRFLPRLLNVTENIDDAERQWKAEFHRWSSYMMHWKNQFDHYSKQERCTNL
- Assay remarks: biochemical
- Assay conditions: mean ± SEM
Scale: pIC50 equals -log10([C]), with [C] in mol/L.

Prompt: Any idea what its pIC50 is? The molecule is COc1ccc2[nH]cc(CCNC(=O)CN(CCCC3CCN(Cc4ccccc4)CC3)C(=O)c3cc(=O)c4ccccc4o3)c2c1 [14j]
Response: 6.57

Prompt: Another molecule: CCCOc1ccc2[nH]cc(CCNC(=O)CN(CCC3CCN(Cc4ccccc4)CC3)C(=O)c3cc(=O)c4ccccc4o3)c2c1 [14h]
Response: 6.07

Prompt: Let us now turn to COc1ccc2[nH]cc(CCNC(=O)CN(CCCCC3CCN(Cc4ccccc4)CC3)C(=O)c3cc(=O)c4ccccc4o3)c2c1 [14n]
Response: 6.32

Prompt: Next entry: O=C(CN(CCCCC1CCN(Cc2ccccc2)CC1)C(=O)c1cc(=O)c2ccccc2o1)NCCc1c[nH]c2ccccc12 [14m]
Response: 7.22

----------
- Measurement target: hBuChE (Homo sapiens)
- Construct: hBuChE from human serum (Sigma Aldrich, Madrid, Spain)
- Sequence (P06276 29-602): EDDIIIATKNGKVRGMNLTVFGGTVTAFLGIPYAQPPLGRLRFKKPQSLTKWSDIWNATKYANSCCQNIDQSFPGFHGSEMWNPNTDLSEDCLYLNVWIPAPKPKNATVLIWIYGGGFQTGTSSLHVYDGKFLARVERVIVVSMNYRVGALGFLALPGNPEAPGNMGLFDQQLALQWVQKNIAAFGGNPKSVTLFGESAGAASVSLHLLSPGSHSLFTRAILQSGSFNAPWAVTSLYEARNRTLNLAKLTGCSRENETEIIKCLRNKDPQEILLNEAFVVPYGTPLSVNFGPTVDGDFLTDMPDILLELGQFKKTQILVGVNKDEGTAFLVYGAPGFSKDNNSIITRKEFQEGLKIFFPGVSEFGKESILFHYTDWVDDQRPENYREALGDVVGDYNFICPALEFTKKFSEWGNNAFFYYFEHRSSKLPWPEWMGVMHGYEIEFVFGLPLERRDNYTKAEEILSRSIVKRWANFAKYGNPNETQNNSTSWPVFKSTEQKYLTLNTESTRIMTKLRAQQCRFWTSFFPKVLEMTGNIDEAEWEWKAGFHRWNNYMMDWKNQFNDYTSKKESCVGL
- Assay remarks: biochemical
- Assay conditions: mean ± SEM
Output condition met for records whose IC50 is lower than 60 nM, condition not met for records at or above 60 nM.

- Compound: "COc1ccc2[nH]cc(CCNC(=O)CN(CCCCC3CCN(Cc4ccccc4)CC3)C(=O)c3cc(=O)c4ccccc4o3)c2c1 [14n]"
  Label value: "condition met"
- Compound: "COc1ccc2[nH]cc(CCNC(=O)CN(CCC3CCN(Cc4ccccc4)CC3)C(=O)c3cc(=O)c4ccccc4o3)c2c1 [14f]"
  Label value: "condition not met"
- Compound: "CCCOc1ccc2[nH]cc(CCNC(=O)CN(CCCCC3CCN(Cc4ccccc4)CC3)C(=O)c3cc(=O)c4ccccc4o3)c2c1 [14p]"
  Label value: "condition not met"
- Compound: "CC(C)Oc1ccc2[nH]cc(CCNC(=O)CN(CCCC3CCN(Cc4ccccc4)CC3)C(=O)c3cc(=O)c4ccccc4o3)c2c1 [14k]"
  Label value: "condition met"
- Compound: "O=C(CN(CCC1CCN(Cc2ccccc2)CC1)C(=O)c1cc(=O)c2ccccc2o1)NCCc1c[nH]c2ccccc12 [14e]"
  Label value: "condition met"

Prompt: Determine if CC(C)Oc1ccc2[nH]cc(CCNC(=O)CN(CCC3CCN(Cc4ccccc4)CC3)C(=O)c3cc(=O)c4ccccc4o3)c2c1 [14g] shows IC50 strictly lower than 60 nM.
Response: condition met

Prompt: And what about the compound CCCOc1ccc2[nH]cc(CCNC(=O)CN(CCC3CCN(Cc4ccccc4)CC3)C(=O)c3cc(=O)c4ccccc4o3)c2c1 [14h] ?
Response: condition not met

Prompt: And for O=C(CN(CC1CCN(Cc2ccccc2)CC1)C(=O)c1cc(=O)c2ccccc2o1)NCCc1c[nH]c2ccccc12 [14a] ?
Response: condition not met

----------
Recorded IC50 values for a group of compounds are listed next.
- Measurement target: EeAChE (Electrophorus electricus, UniProt O42275)
- Construct: EeAChE (type VI-S, purified from Electrophorus electricus); tissue type VI-S
- Assay remarks: biochemical
- Assay conditions: mean ± SEM
Give the value in nM but do not write nM after it.

Prompt: I'd like to know its IC50. The compound in question is CCCOc1ccc2[nH]cc(CCNC(=O)CN(CCCC3CCN(Cc4ccccc4)CC3)C(=O)c3cc(=O)c4ccccc4o3)c2c1 [14l]
Response: 380

Prompt: Now consider O=C(CN(CCC1CCN(Cc2ccccc2)CC1)C(=O)c1cc(=O)c2ccccc2o1)NCCc1c[nH]c2ccccc12 [14e] .
Response: 1430

Prompt: Same thing, different compound: CCCOc1ccc2[nH]cc(CCNC(=O)CN(CCCCC3CCN(Cc4ccccc4)CC3)C(=O)c3cc(=O)c4ccccc4o3)c2c1 [14p]
Response: 80
